Quick reference: melting point of the listed items.

Record excerpt, results attached:
Q. GET /values?readout=melting point&item= "CC(C)c1nc(COCc2ccccc2)n(Cc2cnc3ccccc3c2)c1Sc1cc(Cl)cc(Cl)c1"
A. 95 to 98 °C

Q. GET /values?readout=melting point&item= "CCc1nc2c(N)nc3ccccc3c2n1CCC1(O)CC1"
A. 199 to 200 °C

Q. GET /values?readout=melting point&item= Cc1cccc(SC2=C(O)CC(CCc3ccccc3)(c3ccccc3)OC2=O)c1 (centres undefined)
A. 68 to 70 °C

Others:
Q. GET /values?readout=melting point&item= CCCCOc1ccc(Oc2ccc(C#CC(C)N(O)C(N)=O)o2)cc1 (centres undefined)
A. 128 to 129 °C

Q. GET /values?readout=melting point&item= "CCOCc1nc2c(N)nc(C)c(C)c2n1CC(C)C"
A. 110 to 112 °C

Q. GET /values?readout=melting point&item= COC(=O)c1c(O)cc(OCC(O)c2ccc3c(c2)C(C)(C)CCC3(C)C)cc1O (centres undefined)
A. 127 to 128 °C

Q. GET /values?readout=melting point&item= "CCNC(=O)n1nc(Oc2ncc(C(F)(F)F)cc2Cl)cc1CC"
A. 85 to 86 °C

Q. GET /values?readout=melting point&item= "CCOC(=O)c1c(N2CCN(C=O)CC2)c2cc(C)ccc2n(Cc2ccccc2)c1=O"
A. 196 °C

Q. GET /values?readout=melting point&item= COc1ccc(C(CN2CCN(Cc3ccccc3)C2=O)NC(C)=O)cc1OC (centres undefined)
A. 156 °C

// provenance: a melting point compilation (Tetko et al.; mined from patent text by program, amines drawn as free bases though some values may be those of a salt)
